This collection of values is drawn from patent US20250268854A1.

Target: human Sortilin (Homo sapiens (Human), UniProt Q99523)
Assay: Creoptix (GCI) binding kinetics, human Sortilin
Conditions: HCl salt, screened at 1 μM
Where a name gives a salt, the structure may show the parent alone.
Attribute measured: Kd (µM)
Please give a number only; it is taken to be in µM.

Compound | Units | Data value
CC(C)(C)CC[C@H](NCc1ccccc1)C(=O)O [Example 3, hydrochloride] | µM | 0.902

# ---- query compound ----
Query: What value of Kd has been recorded for this entry: COc1ccccc1CN[C@@H](CCC(C)(C)C)C(=O)O [Example 9, hydrochloride]
Response: 8.45

###

Molecular target: h-Sortilin (Homo sapiens (Human), UniProt Q99523)
Sequence (Q99523 78-831): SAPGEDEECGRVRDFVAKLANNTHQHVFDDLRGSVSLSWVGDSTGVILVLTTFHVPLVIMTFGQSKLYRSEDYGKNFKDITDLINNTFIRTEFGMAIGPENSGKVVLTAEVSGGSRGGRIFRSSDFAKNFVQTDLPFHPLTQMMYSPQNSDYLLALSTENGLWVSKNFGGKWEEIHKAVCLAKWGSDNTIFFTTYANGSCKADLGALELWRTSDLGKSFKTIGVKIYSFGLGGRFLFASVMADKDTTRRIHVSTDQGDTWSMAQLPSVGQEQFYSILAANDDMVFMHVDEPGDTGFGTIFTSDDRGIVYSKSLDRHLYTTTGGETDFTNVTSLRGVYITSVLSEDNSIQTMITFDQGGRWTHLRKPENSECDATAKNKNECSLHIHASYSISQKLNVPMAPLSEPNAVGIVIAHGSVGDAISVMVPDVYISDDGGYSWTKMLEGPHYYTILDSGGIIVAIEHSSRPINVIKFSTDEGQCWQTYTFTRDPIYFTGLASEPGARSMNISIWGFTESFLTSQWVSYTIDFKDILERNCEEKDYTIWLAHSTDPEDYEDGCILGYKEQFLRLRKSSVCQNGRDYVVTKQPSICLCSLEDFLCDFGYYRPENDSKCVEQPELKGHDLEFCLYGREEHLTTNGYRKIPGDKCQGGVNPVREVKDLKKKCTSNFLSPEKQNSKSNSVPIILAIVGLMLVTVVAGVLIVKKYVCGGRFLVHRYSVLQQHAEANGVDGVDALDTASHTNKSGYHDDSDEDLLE
Assay: Neurotensin (NTS) scintillation proximity assay (SPA): displacement of [3H]-neurotensin binding
Conditions: 150 nM 6his-Sortilin, 5 nM [3H]-Neurotensin; average of at least 2 determinations
IC50 listing for selected molecules.
Dear colleague, please return just the value in nM, with no unit written.

# annotated cases, reported IC50 shown
Molecule | IC50, nM
Cn1ncc2c(CN[C@@H](CCC(C)(C)C)C(=O)O)cccc21 | 2830
CC(C)(C)CC[C@H](NCc1ccccc1C(F)(F)F)C(=O)O | 1020
COc1ccc([C@H](C)N[C@@H](CCC(C)(C)C)C(=O)O)cc1C | 280
CC(C)(C)CC[C@H](NCc1c(F)cccc1F)C(=O)O | 2840
Cn1cnc2cc(CN[C@@H](CCC(C)(C)C)C(=O)O)ccc21 | 460

Query: Report IC50 for `CC(C)(C)CC[C@H](NCc1cnc2cccnc2c1)C(=O)O` please.
Response: 160

Query: Which IC50 value belongs to `COc1ccc(CN[C@@H](CCC(C)(C)C)C(=O)O)c2ccccc12` ?
Response: 950

Query: Report IC50 for `CC(C)(C)CC[C@H](N[C@H](c1ccccc1)C(F)F)C(=O)O` please.
Response: 565

Query: Name the recorded IC50 for `CC(C)(C)CC[C@H](NCc1cccnc1)C(=O)O` .
Response: 1130

Query: Item under review: `COc1ccc(CN[C@@H](CCC(C)(C)C)C(=O)O)cc1F` . Reported IC50?
Response: 710

###

Target: mouse Sortilin (Mus musculus (Mouse))
Sequence (Q6PHU5 76-753): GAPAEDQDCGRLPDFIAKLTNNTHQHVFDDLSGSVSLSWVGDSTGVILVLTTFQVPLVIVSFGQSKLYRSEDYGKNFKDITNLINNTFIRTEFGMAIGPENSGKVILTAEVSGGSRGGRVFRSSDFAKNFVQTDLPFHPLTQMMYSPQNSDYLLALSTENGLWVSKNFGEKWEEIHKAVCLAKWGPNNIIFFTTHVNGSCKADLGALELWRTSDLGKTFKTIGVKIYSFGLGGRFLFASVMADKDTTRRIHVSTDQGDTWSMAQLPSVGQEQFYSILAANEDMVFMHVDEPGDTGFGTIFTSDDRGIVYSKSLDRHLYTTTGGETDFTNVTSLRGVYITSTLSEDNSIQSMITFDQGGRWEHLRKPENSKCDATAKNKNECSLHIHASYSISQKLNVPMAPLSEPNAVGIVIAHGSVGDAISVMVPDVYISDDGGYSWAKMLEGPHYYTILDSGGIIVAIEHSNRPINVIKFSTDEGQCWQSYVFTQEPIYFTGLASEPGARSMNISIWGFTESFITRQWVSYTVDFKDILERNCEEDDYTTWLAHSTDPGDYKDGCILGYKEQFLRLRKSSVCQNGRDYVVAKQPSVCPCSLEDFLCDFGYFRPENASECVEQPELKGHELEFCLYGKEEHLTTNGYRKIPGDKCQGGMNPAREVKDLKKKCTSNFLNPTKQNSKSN
Assay: Creoptix (GCI) binding kinetics, mouse Sortilin
Details: HCl salt, screened at 1 μM
Attribute measured: Kd (µM)
All answers are understood in µM, so give the number only.

Query: Name the reported Kd value associated with the molecule `COc1cccc(CN[C@@H](CCC(C)(C)C)C(=O)O)c1.Cl`
Response: 1.02

###

Below is a list of entries, each paired with its recorded IC50 value.
Target: h-Sortilin (Homo sapiens (Human), UniProt Q99523)
Assay: Neurotensin (NTS) scintillation proximity assay (SPA): displacement of [3H]-neurotensin binding
Conditions: 150 nM 6his-Sortilin, 5 nM [3H]-Neurotensin; average of at least 2 determinations
Counter-ions that a name gives are not always drawn.
Respond with the bare value in nM.

Recorded results for 10 molecules are shown here.
Molecule | IC50 (nM)
CC(C)(C)CC[C@H](NCc1ccnc2[nH]ccc12)C(=O)O | 850
Cc1ccc(CN[C@@H](CCC(C)(C)C)C(=O)O)c2ccn(C)c12 | 380
CC(C)(C)CC[C@H](NCc1ccc2c(c1)OCCO2)C(=O)O | 330
CC(C)(C)CC[C@H](NCc1cncnc1)C(=O)O | 410
Cc1cnccc1CN[C@@H](CCC(C)(C)C)C(=O)O | 1630
COc1ccc(CN[C@@H](CCC(C)(C)C)C(=O)O)cc1OC | 1360
Cn1ccc2cccc(CN[C@@H](CCC(C)(C)C)C(=O)O)c21 | 1200
COc1cc(CN[C@@H](CCC(C)(C)C)C(=O)O)ccc1C | 400
Cc1ccc(CN[C@@H](CCC(C)(C)C)C(=O)O)cc1C | 740
CC(C)(C)CC[C@H](NC(c1ccccc1)c1ccccc1)C(=O)O [Example 8, hydrochloride] | 270

Query: Entry `CC(C)(C)CC[C@H](NCc1cccc2c1CCCC2)C(=O)O` has what IC50?
Response: 360

Query: Return reported IC50; argument: `CC(C)(C)CC[C@H](NCc1ccc(Cl)c(Cl)c1)C(=O)O`
Response: 550

Query: Requested field: IC50. Item: `COc1ccc([C@@H](N[C@@H](CCC(C)(C)C)C(=O)O)C(F)F)cc1OC`
Response: 320
